# TEST_DESCRIPTION: Cytotoxicity in HEp-2 cells (CCK8)
# REPORTED_CONDITIONS: human
VALUE_KIND: CC50 at 5 days

For this molecule ( O=c1ccn([C@@H]2O[C@](F)(CO)[C@@H](O)[C@H]2O)c(=O)[nH]1 [Compound X28-1, reference compound] ), measured CC50 at 5 days is > 10 µM

For this molecule ( CC(C)C(=O)OCn1c(=O)ccn([C@@H]2O[C@](F)(COC(=O)C(C)C)[C@H]3OC(=O)O[C@@H]23)c1=O [Compound X113] ), measured CC50 at 5 days is > 10 µM

For this molecule ( CCC(CC)C(=O)OC[C@@]1(F)O[C@@H](n2ccc(=O)n(COC(=O)C(C)C)c2=O)[C@H](O)[C@@H]1O [Compound X57] ), measured CC50 at 5 days is > 5 µM

For this molecule ( CC(C)C(=O)OC[C@@]1(F)O[C@@H](n2ccc(=O)n(COC(=O)c3cccnc3)c2=O)[C@H](OC(=O)C(C)C)[C@@H]1OC(=O)C(C)C [Compound X206] ), measured CC50 at 5 days is > 10 µM

For this molecule ( CCC(CC)C(=O)OCn1c(=O)ccn([C@@H]2O[C@](F)(COC(=O)C(C)C)[C@@H](O)[C@H]2O)c1=O [Compound X52] ), measured CC50 at 5 days is > 10 µM

For this molecule ( O=C(OCn1c(=O)ccn([C@@H]2O[C@](F)(COC(=O)C3CCCCC3)[C@@H](O)[C@H]2O)c1=O)C1CCCCC1 [Compound X63] ), measured CC50 at 5 days is > 10 µM

###

# TEST_DESCRIPTION: Stability test of compounds in solutions at different pH values
# REPORTED_CONDITIONS: buffered saline solution pH 6.8, 6 h
VALUE_KIND: Content reduction (%)
Numeric answer only, unit % assumed.

For this molecule ( CC(=O)OC[C@@]1(F)O[C@@H](n2ccc(=O)n(COC(=O)c3cccnc3)c2=O)[C@H](OC(C)=O)[C@@H]1OC(C)=O.Cl [X219 hydrochloride] ), measured Content reduction (%) is 2.03

For this molecule ( CC(C)C(=O)OC[C@@]1(F)O[C@@H](n2ccc(=O)n(COC(=O)c3cccnc3)c2=O)[C@H](OC(=O)C(C)C)[C@@H]1OC(=O)C(C)C ), measured Content reduction (%) is 3.09

For this molecule ( CC(C)C(=O)OCn1c(=O)ccn([C@@H]2O[C@](F)(COC(=O)C(C)C)[C@@H](O)[C@H]2O)c1=O ), measured Content reduction (%) is 2.0

###

# TEST_DESCRIPTION: Stability test of compounds in solutions at different pH values
# REPORTED_CONDITIONS: buffered saline solution pH 4.0, 6 h
Kindly state Content reduction (%) for each of the entries shown.
Numeric answer only, unit % assumed.

For this molecule ( CC(C)C(=O)OCn1c(=O)ccn([C@@H]2O[C@](F)(COC(=O)C(C)C)[C@@H](O)[C@H]2O)c1=O [Compound X51] ), measured Content reduction (%) is 2.5

For this molecule ( CC(C)C(=O)OC[C@@]1(F)O[C@@H](n2ccc(=O)n(COC(=O)C3CCCCC3)c2=O)[C@H](O)[C@@H]1O [Compound X55] ), measured Content reduction (%) is 4.9

For this molecule ( CC(=O)OC[C@@]1(F)O[C@@H](n2ccc(=O)n(COC(=O)c3cccnc3)c2=O)[C@H](OC(C)=O)[C@@H]1OC(C)=O.Cl [X219 hydrochloride] ), measured Content reduction (%) is 0.28

For this molecule ( CC(C)C(=O)OC[C@@]1(F)O[C@@H](n2ccc(=O)n(COC(=O)c3cccnc3)c2=O)[C@H](OC(=O)C(C)C)[C@@H]1OC(=O)C(C)C [Compound X206] ), measured Content reduction (%) is 0.03
